Biological target: T1, control peptide A2E-14/HLA-A*02:01 complex on T2 cells (member of the P19 mixture) (human)
T1 construct: Loaded on T2 cells as part of the mixture of 19 control peptides
Test: flow cytometry, phage on T2 cells

binder | binding result
PSA146/HLA-A*02:01-specific scFv phage clone #14 (scFv, V domains shown) VH: EVQLVQSGAEVKKPGASVKVSCKASGYTFTGYFMHWVRQAPGQGLEWMGGFDPEDGETIYAQKFQGRVTMTEDTSTDTAYMELSSLRSEDTAVYYCARYSYDLWGQGTLVTVSS VL: QTVVTQEPSLTVSPGGTVTLTCASSTGAVTSGYYPNWFQQKPGQAPRALIYSTSNKHSWTPARFSGSLLGGKAALTLSGVQPEDEAEYYCLLYYGGAQWVFGGGTKLTVLG | no binding
PSA146/HLA-A*02:01-specific scFv phage clone #18 (scFv, V domains shown) VH: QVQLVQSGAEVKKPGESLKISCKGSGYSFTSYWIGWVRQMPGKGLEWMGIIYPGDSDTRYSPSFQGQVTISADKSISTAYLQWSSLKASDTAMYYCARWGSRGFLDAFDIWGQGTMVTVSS VL: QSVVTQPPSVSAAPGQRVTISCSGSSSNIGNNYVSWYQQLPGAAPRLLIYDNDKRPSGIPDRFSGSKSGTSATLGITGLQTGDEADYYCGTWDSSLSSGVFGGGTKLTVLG | no binding
